# pest or weed control at 320 g/ha annotations
System: POLCO
Assay: Pre-emergence herbicidal action against POLCO
Format: in vivo, Polygonum convolvulus
Settings: Fallopia convolvulus, 504 h, dosage 320 g/ha

Example entries and their recorded answers appear below.
CCCn1nnnc1NC(=O)c1ccc(C(F)(F)F)c(C(N)=O)c1Cl 80%
CCn1nnnc1NC(=O)c1ccc(C(F)(F)F)c(C(=O)NC)c1SC 100%
CCNC(=O)c1c(C(F)F)ccc(C(=O)Nc2nnnn2C)c1Cl 80%
CCn1nnnc1NC(=O)c1ccc(C(F)F)c(C(=O)NC)c1Cl 80%
CCn1nnnc1NC(=O)c1ccc(C(F)(F)F)c(C(=O)NC)c1Cl 100%

API: the following record is the query input.
Query: For the compound CCNC(=O)c1c(C(F)F)ccc(C(=O)Nc2nnnn2CC)c1Cl , what pest or weed control at 320 g/ha is on record?
Result: 100%
